meta.source: patent US6630128B1

Give measured ΦΔ (singlet oxygen quantum yield) for each item. Keep answers brief.
- assay-remarks: Singlet oxygen quantum yields (singlet oxygen phosphorescence at 1270 nm)
- Format: physicochemical
- experimental-context: aerated toluene, excitation 355 nm, 20-23° C., relative to TPP ΦΔ=0.58

compound	ΦΔ (singlet oxygen quantum yield)
C=CCCOCCCCCCOc1ccc(-c2c3nc(c(-c4cc(OCCCCCCCCCCCCCCCC)c(OCCCCCCCCCCCCCCCC)c(OCCCCCCCCCCCCCCCC)c4)c4ccc([n-]4)c(-c4cc(OCCCCCCCCCCCCCCCC)c(OCCCCCCCCCCCCCCCC)c(OCCCCCCCCCCCCCCCC)c4)c4nc(c(-c5cc(OCCCCCCCCCCCCCCCC)c(OCCCCCCCCCCCCCCCC)c(OCCCCCCCCCCCCCCCC)c5)c5ccc2[n-]5)C=C4)C=C3)cc1.[Zn+2] [Example 71]	0.72 ± 0.07

Now let's try a different one.
Q: Which ΦΔ (singlet oxygen quantum yield) value is on record for C=CCCOCCCCCCOc1ccc(-c2c3nc(c(-c4cc(OCCCCCCCCCC)c(OCCCCCCCCCC)c(OCCCCCCCCCC)c4)c4ccc([n-]4)c(-c4cc(OCCCCCCCCCC)c(OCCCCCCCCCC)c(OCCCCCCCCCC)c4)c4nc(c(-c5cc(OCCCCCCCCCC)c(OCCCCCCCCCC)c(OCCCCCCCCCC)c5)c5ccc2[n-]5)C=C4)C=C3)cc1.[Mg+2] [Example 77] ?
Result: 0.51 ± 0.05
